# Tested on: HRP-Goat A'Mouse IgG
# test_name: Enzymatic determination of protein binding to coated medium binding polystyrene plate
# conditions: coated medium binding PS; versus uncoated high binding polystyrene plate; absorbance 405 nm
Marks after values point to notes of the source that are not given here.
endpoint_name: % Reduction in Protein Binding

{"substance": "PEO(4) SORBITOL MONO-LAURATE", "% Reduction in Protein Binding": "99.8%"}

// fetch % Reduction in Protein Binding given entry PEO(4) SORBITOL MONO-STEARATE 99.5%

// fetch % Reduction in Protein Binding given entry SORBITOL MONO-OLEATE 92.7%

// fetch % Reduction in Protein Binding given entry SORBITOL MONO-PALMITATE 88.9* %

// fetch % Reduction in Protein Binding given entry SORBITOL MONO-STEARATE 83.1* %

// fetch % Reduction in Protein Binding given entry PEO(20) SORBITOL TRI-STEARATE 99.7%

This collection of values is drawn from patent US7776572B2.
